Origin of measurements: ChEMBL document CHEMBL5331073

# Lookup of reported Tmax keyed by entry
Assay: Tmax in Sprague-Dawley rat at 5 mg/kg, po and measured upto 24 hrs by LC-MS analysis
Format: ADME, organism-based
Conditions: in vivo
RECORDED METRIC: Tmax (h)

mol=COc1cccc(C(=O)N2Cc3c(N4CCOC[C@H]4C)nc(-c4cccc5[nH]ccc45)nc3C2(C)C)c1 meas_value=0.667
mol=C[C@@H]1COCCN1c1nc(-c2cccc3[nH]ccc23)nc2c1CN(C(=O)c1cccc(S(C)(=O)=O)c1)C2(C)C meas_value=2
mol=C[C@@H]1COCCN1c1nc(-c2cccc3[nH]ccc23)nc2c1CN(C(=O)c1ccc(S(C)(=O)=O)cc1)C2(C)C meas_value=2
mol=C[C@@H]1COCCN1c1nc(-c2cccc3[nH]ccc23)nc2c1CN(C(=O)c1ccc3c(c1)OCO3)C2(C)C meas_value=1.67
mol=COc1ccc(C(=O)N2Cc3c(N4CCOC[C@H]4C)nc(-c4cccc5[nH]ccc45)nc3C2(C)C)cc1 meas_value=1

====

Test system: HT-29
Assay: Antiproliferative activity against ATM-proficient human HT-29 cells assessed as reduction in cell viability incubated for 3 days in presence of AZD-1390 by MTT assay
Assay type: functional, cell-based
Details: HT-29, 72 h
RECORDED METRIC: IC50 (µM)

mol=C[C@@H]1COCCN1c1nc(-c2cccc3[nH]ccc23)nc2c1CN(C(=O)c1ccc3c(c1)OCO3)C2(C)C units_symbol=µM meas_value=0.045
mol=C[C@@H]1COCCN1c1cc(C2(S(C)(=O)=O)CC2)nc(-c2cccc3[nH]ccc23)n1 units_symbol=µM meas_value=0.072
mol=C[C@@H]1COCCN1c1nc(-c2cccc3[nH]ccc23)nc2c1CN(C(=O)c1cccc(S(C)(=O)=O)c1)C2(C)C units_symbol=µM meas_value=0.019

====

Test system: HCT-116
Experiment: Antiproliferative activity against ATM-proficient human HCT-116 cells assessed as reduction in cell viability incubated for 3 days in presence of AZD-1390 by MTT assay
Format: functional, cell-based
Conditions: HCT-116, 72 h
pIC50: −log10 of the molar value.
RECORDED METRIC: pIC50

mol=C[C@@H]1COCCN1c1nc(-c2cccc3[nH]ccc23)nc2c1CN(C(=O)c1cccc(S(C)(=O)=O)c1)C2(C)C recorded_metric=pIC50 meas_value=9.00
mol=C[C@@H]1COCCN1c1cc(C2(S(C)(=O)=O)CC2)nc(-c2cccc3[nH]ccc23)n1 recorded_metric=pIC50 meas_value=6.82
mol=C[C@@H]1COCCN1c1nc(-c2cccc3[nH]ccc23)nc2c1CN(C(=O)c1ccc3c(c1)OCO3)C2(C)C recorded_metric=pIC50 meas_value=7.08

====

Test: Protein binding in mouse plasma at 1 uM incubated for 6 hrs by dialysis based LC-MS/MS analysis
Format: ADME, cell-free
Conditions: read-out: PPB (converted)
RECORDED METRIC: fraction unbound at 6 h, 1 µM

mol=C[C@@H]1COCCN1c1nc(-c2cccc3[nH]ccc23)nc2c1CN(C(=O)c1cccc(S(C)(=O)=O)c1)C2(C)C recorded_metric="fraction unbound at 6 h, 1 µM" meas_value=0.024
mol=C[C@@H]1COCCN1c1nc(-c2cccc3[nH]ccc23)nc2c1CN(C(=O)c1ccc3c(c1)OCO3)C2(C)C recorded_metric="fraction unbound at 6 h, 1 µM" meas_value=0.005

====

# Lookup of reported CLint scaled at 1 h, 1 µM keyed by entry
Test: in vitro
Details: rat, liver microsomes
RECORDED METRIC: CLint scaled at 1 h, 1 µM

mol=CC(=O)c1ccc(C(=O)N2Cc3c(N4CCOC[C@H]4C)nc(-c4cccc5[nH]ccc45)nc3C2(C)C)cc1 meas_value="51.4 mL/min/kg"
mol=CC(=O)N1CCc2c(N3CCOC[C@H]3C)nc(-c3cccc4[nH]ccc34)nc2C1(C)C meas_value="110 mL/min/kg"
mol=CC(=O)c1cccc(C(=O)N2Cc3c(N4CCOC[C@H]4C)nc(-c4cccc5[nH]ccc45)nc3C2(C)C)c1 meas_value="218 mL/min/kg"
mol=C[C@@H]1COCCN1c1nc(-c2cccc3[nH]ccc23)nc2c1CN(C(=O)c1ccc3c(c1)OCO3)C2(C)C meas_value="63.6 mL/min/kg"

====

Assay: MRT(t) in Sprague-Dawley rat at 5 mg/kg, po and measured upto 24 hrs by LC-MS analysis
Type: ADME, organism-based
Conditions: in vivo
# Lookup of reported MRT last at 24 h keyed by entry
RECORDED METRIC: MRT last at 24 h

mol=COc1ccc(C(=O)N2Cc3c(N4CCOC[C@H]4C)nc(-c4cccc5[nH]ccc45)nc3C2(C)C)cc1 meas_value="7.08 h"
mol=C[C@@H]1COCCN1c1nc(-c2cccc3[nH]ccc23)nc2c1CN(C(=O)c1ccc(S(C)(=O)=O)cc1)C2(C)C meas_value="5.56 h"
mol=C[C@@H]1COCCN1c1nc(-c2cccc3[nH]ccc23)nc2c1CN(C(=O)c1ccc3c(c1)OCO3)C2(C)C meas_value="4.36 h"
mol=C[C@@H]1COCCN1c1nc(-c2cccc3[nH]ccc23)nc2c1CN(C(=O)c1cccc(S(C)(=O)=O)c1)C2(C)C meas_value="3.6 h"
mol=COc1cccc(C(=O)N2Cc3c(N4CCOC[C@H]4C)nc(-c4cccc5[nH]ccc45)nc3C2(C)C)c1 meas_value="2.7 h"

====

# Lookup of reported microsomal CLint at 1 h, 1 µM keyed by entry
Assay: in vitro
Conditions: human, liver microsomes
RECORDED METRIC: microsomal CLint at 1 h, 1 µM

mol=C[C@@H]1COCCN1c1nc(-c2cccc3[nH]ccc23)nc2c1CCN(C(=O)c1ccccc1)C2(C)C recorded_metric="microsomal CLint at 1 h, 1 µM" meas_value="56.8 µL/min/mg"
mol=CC(=O)c1cccc(C(=O)N2Cc3c(N4CCOC[C@H]4C)nc(-c4cccc5[nH]ccc45)nc3C2(C)C)c1 recorded_metric="microsomal CLint at 1 h, 1 µM" meas_value="339 µL/min/mg"
mol=C[C@@H]1COCCN1c1nc(-c2cccc3[nH]ccc23)nc2c1CN(C(=O)c1ccc3c(c1)OCO3)C2(C)C recorded_metric="microsomal CLint at 1 h, 1 µM" meas_value="53.2 µL/min/mg"
mol=C[C@@H]1COCCN1c1nc(-c2cccc3[nH]ccc23)nc2c1CN(C(=O)c1ccc(S(C)(=O)=O)cc1)C2(C)C recorded_metric="microsomal CLint at 1 h, 1 µM" meas_value="53.9 µL/min/mg"

====

Experiment: in vitro
Details: rat, liver microsomes
Field: class. Source value: microsomal CLint at 1 h, 1 µM. Ranges: low = under 40 µL/min/mg, intermediate = from 40 µL/min/mg up to 80 µL/min/mg, high = 80 µL/min/mg and over

mol=C[C@@H]1COCCN1c1nc(-c2cccc3[nH]ccc23)nc2c1CN(C(=O)c1cccc(S(C)(=O)=O)c1)C2(C)C class=intermediate
mol=CC(=O)c1cccc(C(=O)N2Cc3c(N4CCOC[C@H]4C)nc(-c4cccc5[nH]ccc45)nc3C2(C)C)c1 class=high
mol=CCC(=O)N1CCc2c(N3CCOC[C@H]3C)nc(-c3cccc4[nH]ccc34)nc2C1(C)C class=high
mol=C[C@@H]1COCCN1c1nc(-c2cccc3[nH]ccc23)nc2c1CCN(C(=O)c1ccccc1)C2(C)C class=low
mol=CC(=O)N1CCc2c(N3CCOC[C@H]3C)nc(-c3cccc4[nH]ccc34)nc2C1(C)C class=intermediate
mol=C[C@@H]1COCCN1c1nc(-c2cccc3[nH]ccc23)nc2c1CN(C(=O)c1ccc(S(C)(=O)=O)cc1)C2(C)C class=low
mol=C[C@@H]1COCCN1c1nc(-c2cccc3[nH]ccc23)nc2c1CN(C(=O)c1ccc3c(c1)OCO3)C2(C)C class=low
mol=CC(=O)c1ccc(C(=O)N2Cc3c(N4CCOC[C@H]4C)nc(-c4cccc5[nH]ccc45)nc3C2(C)C)cc1 class=low
mol=COc1ccc(C(=O)N2Cc3c(N4CCOC[C@H]4C)nc(-c4cccc5[nH]ccc45)nc3C2(C)C)cc1 class=intermediate
mol=CC(C)C(=O)N1CCc2c(N3CCOC[C@H]3C)nc(-c3cccc4[nH]ccc34)nc2C1(C)C class=high
mol=COc1cccc(C(=O)N2Cc3c(N4CCOC[C@H]4C)nc(-c4cccc5[nH]ccc45)nc3C2(C)C)c1 class=low
mol=C[C@@H]1COCCN1c1nc(-c2cccc3[nH]ccc23)nc2c1CCN(C(=O)c1cccc(F)c1)C2(C)C class=intermediate

====

# Lookup of reported half-life keyed by entry
Experiment: Half life in Sprague-Dawley rat at 1 mg/kg, iv and measured upto 24 hrs by LC-MS analysis
Format: ADME, organism-based
Conditions: in vivo
RECORDED METRIC: half-life (h)

mol=COc1cccc(C(=O)N2Cc3c(N4CCOC[C@H]4C)nc(-c4cccc5[nH]ccc45)nc3C2(C)C)c1 recorded_metric=half-life units_symbol=h meas_value=1.28
mol=COc1ccc(C(=O)N2Cc3c(N4CCOC[C@H]4C)nc(-c4cccc5[nH]ccc45)nc3C2(C)C)cc1 recorded_metric=half-life units_symbol=h meas_value=3.02
mol=C[C@@H]1COCCN1c1nc(-c2cccc3[nH]ccc23)nc2c1CN(C(=O)c1ccc3c(c1)OCO3)C2(C)C recorded_metric=half-life units_symbol=h meas_value=1.59
mol=C[C@@H]1COCCN1c1nc(-c2cccc3[nH]ccc23)nc2c1CN(C(=O)c1ccc(S(C)(=O)=O)cc1)C2(C)C recorded_metric=half-life units_symbol=h meas_value=5.49
mol=C[C@@H]1COCCN1c1nc(-c2cccc3[nH]ccc23)nc2c1CN(C(=O)c1cccc(S(C)(=O)=O)c1)C2(C)C recorded_metric=half-life units_symbol=h meas_value=1.32
